- experimental_target: A1 receptors from rat brain membranes (Rattus norvegicus)
- Construct: Rat cerebral cortical and striatal membranes were prepared; from tissue; host or cells: rat brain (cerebral cortical) membranes
- Sequence (P25099 whole entry): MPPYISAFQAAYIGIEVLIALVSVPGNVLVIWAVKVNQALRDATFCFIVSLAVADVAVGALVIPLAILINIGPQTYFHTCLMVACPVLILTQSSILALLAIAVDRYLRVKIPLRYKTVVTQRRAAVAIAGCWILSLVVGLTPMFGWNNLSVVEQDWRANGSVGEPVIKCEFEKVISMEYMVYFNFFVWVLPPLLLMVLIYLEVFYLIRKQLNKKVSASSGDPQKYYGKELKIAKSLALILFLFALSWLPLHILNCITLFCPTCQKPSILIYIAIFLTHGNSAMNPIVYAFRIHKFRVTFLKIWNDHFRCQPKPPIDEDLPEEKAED
- experiment_notes: biochemical
- Assay type: binding
- test_parameters: rat brain membranes, displacement of [3H]PIA (or [3H]CHA); read-out: A1 affinity Ki
observation_type: Ki (nM)

{"molecule": "CCCn1c(=O)c2c(ncn2[C@@H]2O[C@H](CO)[C@@H](O)[C@H]2O)n(CCC)c1=O [Compound 118, reference compound]", "observation_type": "Ki", "obs_value": 15900}

[I] CCNC(=O)[C@H]1O[C@@H](n2cnc3c(NCc4ccc(OC)cc4)ncnc32)[C@H](O)[C@@H]1O
[II] CCNC(=O)[C@H]1O[C@@H](n2cnc3c(NCc4cccc([N+](=O)[O-])c4)ncnc32)[C@H](O)[C@@H]1O
Which is greater in Ki, the first item I or the second item II ? Please reply using the label of the selected record.
I
(I: 209 nM, II: 78 nM)

[1] CNC(=O)[C@H]1O[C@@H](n2cnc3c(NCc4cccc(NC(C)=O)c4)ncnc32)[C@H](O)[C@@H]1O
[2] C[C@H]1O[C@@H](n2cnc3c(N)ncnc32)[C@H](O)[C@@H]1O [Compound 73, 5'-deoxyadenosine, reference compound]
[3] CNC(=O)[C@H]1O[C@@H](n2cnc3c(NCc4cccc(Br)c4)ncnc32)[C@H](O)[C@@H]1O
[4] CCNC(=O)[C@H]1O[C@@H](n2cnc3c(NCc4cccc(C)c4)ncnc32)[C@H](O)[C@@H]1O
Sort (4 molecules) by Ki: min first. Respond with an ordered listing of the labels, as requested.
4, 3, 2, 1
(4: 36.5 nM, 3: 65 nM, 2: 269 nM, 1: 7370 nM)

[A] CN(Cc1ccccc1)c1ncnc2c1ncn2[C@@H]1O[C@H](CO)[C@@H](O)[C@H]1O [Compound 30, N^6 -benzyl-N^6 -methyladenosine, reference compound]
[B] NC[C@H]1O[C@@H](n2cnc3c(N)ncnc32)[C@H](O)[C@@H]1O [Compound 74, 5'-deoxy-5'-aminoadenosine, reference compound]
# compare Ki for A vs B ; return the one with the smaller value Please reply using the label of the selected record.
A
(A: 7600 nM, B: 42700 nM)

---

- experimental_target: A2 receptors from rat striatal membranes (Rattus norvegicus)
- Construct: Rat cerebral cortical and striatal membranes were prepared; from tissue; host or cells: rat striatal membranes
- Sequence (P30543 whole entry): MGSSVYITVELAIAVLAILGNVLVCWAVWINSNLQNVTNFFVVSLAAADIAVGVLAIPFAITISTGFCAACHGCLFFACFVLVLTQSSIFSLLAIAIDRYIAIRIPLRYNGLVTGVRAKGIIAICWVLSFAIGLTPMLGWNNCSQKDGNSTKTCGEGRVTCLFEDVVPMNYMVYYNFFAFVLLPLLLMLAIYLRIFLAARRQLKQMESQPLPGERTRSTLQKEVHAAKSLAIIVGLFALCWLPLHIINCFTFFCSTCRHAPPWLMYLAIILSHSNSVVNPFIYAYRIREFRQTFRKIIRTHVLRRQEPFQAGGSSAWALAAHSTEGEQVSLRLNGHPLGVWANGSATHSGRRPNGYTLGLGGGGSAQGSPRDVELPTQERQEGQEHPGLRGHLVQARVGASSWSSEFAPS
- experiment_notes: Radioligand binding at A2 (A2a) receptors, displacement of [3H]CGS 21680 (or [3H]NECA with 50 nM CPA) from rat striatal membranes
- test_parameters: rat striatal membranes, displacement of [3H]CGS 21680 (or [3H]NECA + 50 nM CPA); read-out: A2 affinity Ki
pKi: −log10 of the molar value.
observation_type: pKi

{"molecule": "CNC(=O)[C@H]1O[C@@H](n2cnc3c(NCc4ccc(N)cc4)ncnc32)[C@H](O)[C@@H]1O [Compound 50, N^6-(4-aminobenzyl)-NMCA]", "obs_value": 5.80}
{"molecule": "Cn1c(=O)[nH]c2ncn(C)c2c1=O [Compound 104, 1,7-dimethylX, reference compound]", "obs_value": 4.71}
{"molecule": "CNC(=O)[C@H]1O[C@@H](n2cnc3c(NCc4cccc(C)c4)ncnc32)[C@H](O)[C@@H]1O [Compound 46, N^6-(3-methylbenzyl)-NMCA]", "obs_value": 6.38}

[1] CNC(=O)[C@H]1O[C@@H](n2cnc3c(NCc4ccc(N)c(I)c4)ncnc32)[C@H](O)[C@@H]1O [Compound 51]
[2] CNC(=O)[C@H]1O[C@@H](n2cnc3c(NCc4ccccc4)ncnc32)[C@H](O)[C@@H]1O [Compound 40]
[3] CCNC(=O)[C@H]1O[C@@H](n2cnc3c(NCc4cccc(Cl)c4)ncnc32)[C@H](O)[C@@H]1O [Compound 58]
[4] CCNC(=O)[C@H]1O[C@@H](n2cnc3c(=N)n(Cc4ccc([N+](=O)[O-])cc4)cnc32)[C@H](O)[C@@H]1O [Compound 37]
Sort (4 molecules) by pKi: min first. Respond with an ordered listing of the labels, as requested.
2, 1, 4, 3
(2: 6.22, 1: 6.50, 4: 6.72, 3: 7.72)

These measurements were taken from patent US5773423A.
